- TARGET UNDER TEST: UniProt P04585
Task for the reader: assign each of the following molecules its reported Ki.

Below, each entry is followed by its recorded Ki result.
MOLECULE | REPORTED PROPERTY | TEST VALUE
O=P12O[C@H]([C@@H](O)[C@@H](Cc3ccccc3)N1CC1CC1)[C@@H](Cc1ccccc1)N2CC1CC1 [Example 1F] | Ki | 10 to 1000 nM
O=P12O[C@H]([C@@H](O)[C@@H](Cc3ccccc3)N1Cc1ccccc1)[C@@H](Cc1ccccc1)N2Cc1ccccc1 [Example 4E] | Ki | 10 to 1000 nM

// each listed molecule needs a value for Ki
1. O=P12O[C@H]([C@@H](O)[C@@H](Cc3ccccc3)N1Cc1ccc(CO)cc1)[C@@H](Cc1ccccc1)N2Cc1ccc(CO)cc1 [Example 5C]
2. CCCCN1[C@H](Cc2ccccc2)[C@H](O)[C@H]2OP1(=O)N(CCCC)[C@@H]2Cc1ccccc1 [Example 3C]
3. CNc1cccc(CN2[C@H](Cc3ccccc3)[C@H](O)[C@H]3OP2(=O)N(Cc2cccc(NC)c2)[C@@H]3Cc2ccccc2)c1 [Example 6D]
4. O=P12O[C@H]([C@@H](O)[C@@H](Cc3ccccc3)N1Cc1cccc(CO)c1)[C@@H](Cc1ccccc1)N2Cc1cccc(CO)c1 [Example 8C]
5. O=P12O[C@H]([C@@H](O)[C@@H](Cc3ccccc3)N1Cc1ccc3ccccc3c1)[C@@H](Cc1ccccc1)N2Cc1ccc2ccccc2c1 [Example 2C]

Response:
1. < 10 nM
2. 10 to 1000 nM
3. 10 to 1000 nM
4. < 10 nM
5. 10 to 1000 nM

Query: Endpoint output: Ki of O=P12O[C@H]([C@@H](O)[C@@H](Cc3ccccc3)N1Cc1ccc(O)cc1)[C@@H](Cc1ccccc1)N2Cc1ccc(O)cc1 [Example 7D] . Value?
Response: < 10 nM
